protocol: The drug is tested on WLS-006 corresponding to human gut metagenome with ENA study accession number: PRJEB37062 and ENA sample accession number: ERS12561741 for biotransformation under anaerobic condition. The drug concentrations were measured over 9 timepoints collected between 0 and 24 hours of incubation by liquid-chromatography-coupled mass spectrometry (LC–MS); also: call rule not given here
measurement_setup: 2 µM
test_readout: Bacterial Biotransformation

> print(dat)
                                   compound            observed.value
1  CCN(C)C(=O)Oc1cccc([C@H](C)N(C)C)c1.O=C(O)C(O)C(O)C(=O)O [RIVASTIGMINE TARTRATE]  Compound NOT metabolized
2  O=C(O)c1cc(/N=N/c2ccc(S(=O)(=O)Nc3ccccn3)cc2)ccc1O      Compound metabolized
3  CCN(C(C)=O)c1cccc(-c2ccnc3c(C#N)cnn23)c1      Compound metabolized
4  Br.CN1CCC[C@@H]1Cc1c[nH]c2ccc(CCS(=O)(=O)c3ccccc3)cc12 [ELETRIPTAN HYDROBROMIDE]  Compound NOT metabolized
5  COc1ccc(CN2CCNCC2)c(OC)c1OC.Cl.Cl [TRIMETAZIDINE DIHYDROCHLORIDE]  Compound NOT metabolized
6  CCOc1ccccc1OCCN[C@H](C)Cc1ccc(OC)c(S(N)(=O)=O)c1.Cl [TAMSULOSIN HYDROCHLORIDE]      Compound metabolized
7  CC1Cc2ccccc2N1NC(=O)c1ccc(Cl)c(S(N)(=O)=O)c1 (stereo not drawn) [INDAPAMIDE]  Compound NOT metabolized
8             Nc1nnc(-c2cccc(Cl)c2Cl)c(N)n1  Compound NOT metabolized

----------
protocol: The drug is tested on Z-002 corresponding to rabbit gut metagenome with ENA study accession number: PRJEB37062 and ENA sample accession number: ERS12561802 for biotransformation under anaerobic condition. The drug concentrations were measured over 9 timepoints collected between 0 and 24 hours of incubation by liquid-chromatography-coupled mass spectrometry (LC–MS)
measurement_setup: 2 µM

compound	Bacterial Biotransformation
C[C@@H](c1ncncc1F)[C@](O)(Cn1cncn1)c1ccc(F)cc1F [VORICONAZOLE]	Compound metabolized
O=C(CCCN1CCC2(CC1)C(=O)NCN2c1ccccc1)c1ccc(F)cc1 [SPIPERONE]	Compound NOT metabolized
CCOc1ccc2nc(S(N)(=O)=O)sc2c1 [ETHOXZOLAMIDE]	Compound NOT metabolized
CN(C)CCC=C1c2ccccc2COc2ccccc21 [DOXEPIN]	Compound NOT metabolized
CN1C[C@H](C(=O)N[C@]2(C)O[C@@]3(O)[C@@H]4CCCN4C(=O)[C@H](Cc4ccccc4)N3C2=O)C[C@@H]2c3cccc4[nH]cc(c34)C[C@H]21.CS(=O)(=O)O [DIHYDROERGOTAMINE MESYLATE]	Compound metabolized
Nc1nc(NC2CC2)c2ncn([C@H]3C=C[C@@H](CO)C3)c2n1.Nc1nc(NC2CC2)c2ncn([C@H]3C=C[C@@H](CO)C3)c2n1.O=S(=O)(O)O [ABACAVIR SULFATE]	Compound metabolized
CCOC(=O)[C@H](CCc1ccccc1)N[C@@H](C)C(=O)N1Cc2ccccc2C[C@H]1C(=O)O	Compound metabolized

----------
protocol: The drug is tested on Z-023 corresponding to metagenome with ENA study accession number: PRJEB37062 and ENA sample accession number: ERS12561822 for biotransformation under anaerobic condition. The drug concentrations were measured over 9 timepoints collected between 0 and 24 hours of incubation by liquid-chromatography-coupled mass spectrometry (LC–MS)
measurement_setup: 2 µM
test_readout: Bacterial Biotransformation

molecule	test_readout	observed_value
Br.CN1CCC[C@@H]1Cc1c[nH]c2ccc(CCS(=O)(=O)c3ccccc3)cc12 [ELETRIPTAN HYDROBROMIDE]	Bacterial Biotransformation	Compound NOT metabolized
C=C[C@H]1CN2CC[C@H]1C[C@H]2[C@H](O)c1ccnc2ccc(OC)cc12.C=C[C@H]1CN2CC[C@H]1C[C@H]2[C@H](O)c1ccnc2ccc(OC)cc12.O.O.O=S(=O)(O)O [QUININE SULFATE]	Bacterial Biotransformation	Compound NOT metabolized
O=P1(N(CCCl)CCCl)NCCCO1 (stereo unspecified) [CYCLOPHOSPHAMIDE ANHYDROUS]	Bacterial Biotransformation	Compound NOT metabolized
COC(=O)[C@H](c1ccccc1Cl)N1CCc2sccc2C1.O=S(=O)(O)O [CLOPIDOGREL BISULFATE]	Bacterial Biotransformation	Compound metabolized
CC(NC(C)(C)C)C(=O)c1cccc(Cl)c1 (stereo unspecified)	Bacterial Biotransformation	Compound NOT metabolized
CN1CCC[C@@H]1CCO[C@](C)(c1ccccc1)c1ccc(Cl)cc1.O=C(O)/C=C/C(=O)O [CLEMASTINE FUMARATE]	Bacterial Biotransformation	Compound NOT metabolized
C#C[C@]1(OC(C)=O)CC[C@H]2[C@@H]3CCC4=CC(=O)CC[C@@H]4[C@H]3CC[C@@]21C [NORETHINDRONE ACETATE]	Bacterial Biotransformation	Compound metabolized
CC(=O)CCCCn1c(=O)c2c(ncn2C)n(C)c1=O	Bacterial Biotransformation	Compound NOT metabolized
CC(C)(C)N.CCC[C@H](N[C@@H](C)C(=O)N1[C@H](C(=O)O)C[C@@H]2CCCC[C@@H]21)C(=O)OCC	Bacterial Biotransformation	Compound metabolized
N#Cc1ccc2[nH]cc(CCCCN3CCN(c4ccc5oc(C(N)=O)cc5c4)CC3)c2c1	Bacterial Biotransformation	Compound metabolized
CCOC(=O)C1=C[C@]2(CC)CCCN3CCc4c(n1c1ccccc41)[C@@H]32	Bacterial Biotransformation	Compound metabolized
C[C@@H](c1ncncc1F)[C@](O)(Cn1cncn1)c1ccc(F)cc1F	Bacterial Biotransformation	Compound metabolized
O=C(NC(Cc1cc(=O)[nH]c2ccccc12)C(=O)O)c1ccc(Cl)cc1 (stereo unspecified) [REBAMIPIDE]	Bacterial Biotransformation	Compound metabolized
CN1CCC(=C2c3ccccc3CC(=O)c3sccc32)CC1.O=C(O)/C=C/C(=O)O [KETOTIFEN FUMARATE]	Bacterial Biotransformation	Compound NOT metabolized
C[C@]12CCC(=O)C=C1[C@@H]1C[C@@H]1[C@H]1[C@@H]3[C@@H]4C[C@@H]4[C@@]4(CCC(=O)O4)[C@@]3(C)CC[C@@H]12	Bacterial Biotransformation	Compound metabolized
CN1[C@@H]2CC[C@H]1C[C@@H](OC(=O)[C@H](CO)c1ccccc1)C2	Bacterial Biotransformation	Compound NOT metabolized
CC(C)c1c(CN(C)C(C)Cc2ccccc2)n(C)n(-c2ccccc2)c1=O (stereo unspecified)	Bacterial Biotransformation	Compound metabolized
CCOc1cc(CC(=O)N[C@@H](CC(C)C)c2ccccc2N2CCCCC2)ccc1C(=O)O [REPAGLINIDE]	Bacterial Biotransformation	Compound metabolized
COc1ccc(CN2CCNCC2)c(OC)c1OC.Cl.Cl [TRIMETAZIDINE DIHYDROCHLORIDE]	Bacterial Biotransformation	Compound NOT metabolized
CC(=O)Nc1ccc(OC(C)=O)cc1 [DIACETAMATE]	Bacterial Biotransformation	Compound metabolized
O=C1CN2Cc3c(ccc(Cl)c3Cl)N=C2N1 [ANAGRELIDE]	Bacterial Biotransformation	Compound metabolized
Cc1cc(C)cc(OCC2CNC(=O)O2)c1 (stereo unspecified)	Bacterial Biotransformation	Compound NOT metabolized
CN(C)C(=O)Oc1cccc([N+](C)(C)C)c1.[Br-] [NEOSTIGMINE BROMIDE]	Bacterial Biotransformation	Compound NOT metabolized
CN[C@H]1CC[C@@H](c2ccc(Cl)c(Cl)c2)c2ccccc21	Bacterial Biotransformation	Compound metabolized
O=C(O)CCC(=O)O.O=C(O[C@H]1CN2CCC1CC2)N1CCc2ccccc2[C@@H]1c1ccccc1 [SOLIFENACIN SUCCINATE]	Bacterial Biotransformation	Compound metabolized
CC12CC3CC(C)(C1)CC(N)(C3)C2 [MEMANTINE]	Bacterial Biotransformation	Compound metabolized

----------
protocol: The drug is tested on WLS-077 corresponding to human gut metagenome with ENA study accession number: PRJEB37062 and ENA sample accession number: ERS12561750 for biotransformation under anaerobic condition. The drug concentrations were measured over 9 timepoints collected between 0 and 24 hours of incubation by liquid-chromatography-coupled mass spectrometry (LC–MS)
measurement_setup: 2 µM
test_readout: Bacterial Biotransformation

compound	observed_value
C[C@]12C=CC(=O)C=C1CC[C@@H]1[C@@H]2C(=O)C[C@@]2(C)[C@H]1CC[C@]2(O)C(=O)CO	Compound metabolized
N=C(N)NC(=O)Cc1c(Cl)cccc1Cl	Compound NOT metabolized
CC(C)c1nc(N(C)S(C)(=O)=O)nc(-c2ccc(F)cc2)c1/C=C/[C@@H](O)C[C@@H](O)CC(=O)[O-].CC(C)c1nc(N(C)S(C)(=O)=O)nc(-c2ccc(F)cc2)c1/C=C/[C@@H](O)C[C@@H](O)CC(=O)[O-].[Ca+2]	Compound metabolized
CCOc1ccc2nc(S(N)(=O)=O)sc2c1 [ETHOXZOLAMIDE]	Compound NOT metabolized
CC[C@H](C)C(=O)O[C@H]1CCC=C2C=C[C@H](C)[C@H](CC[C@@H]3C[C@@H](O)CC(=O)O3)[C@H]21	Compound NOT metabolized
CN1[C@@H]2CC[C@H]1C[C@@H](OC(=O)c1c[nH]c3ccccc13)C2	Compound NOT metabolized
COc1ccnc(C[S+]([O-])c2nc3ccc(OC(F)F)cc3[nH]2)c1OC (centres undefined)	Compound metabolized
N#Cc1ccc2c(c1)N(CCCN1CCC(O)CC1)c1ccccc1S2	Compound NOT metabolized
C[N+]12CCC(CC1)C(OC(=O)C(O)(c1ccccc1)c1ccccc1)C2.[Br-] (centres undefined) [CLIDINIUM BROMIDE]	Compound NOT metabolized
CN(C)CCC=C1c2ccccc2COc2ccccc21 [DOXEPIN]	Compound NOT metabolized
C=C[C@H]1CN2CC[C@H]1C[C@H]2[C@H](O)c1ccnc2ccc(OC)cc12.C=C[C@H]1CN2CC[C@H]1C[C@H]2[C@H](O)c1ccnc2ccc(OC)cc12.O.O.O=S(=O)(O)O [QUININE SULFATE]	Compound NOT metabolized
Br.COc1ccc2c(c1)[C@]13CCCC[C@@H]1[C@H](C2)N(C)CC3.O [DEXTROMETHORPHAN HYDROBROMIDE]	Compound metabolized
Br.CN1CCC[C@@H]1Cc1c[nH]c2ccc(CCS(=O)(=O)c3ccccc3)cc12 [ELETRIPTAN HYDROBROMIDE]	Compound NOT metabolized
O=C(O)CCC(=O)O.O=C(O[C@H]1CN2CCC1CC2)N1CCc2ccccc2[C@@H]1c1ccccc1 [SOLIFENACIN SUCCINATE]	Compound NOT metabolized
CN[C@H]1CC[C@@H](c2ccc(Cl)c(Cl)c2)c2ccccc21	Compound metabolized
CC(C)(C)NCC(O)c1cc(Cl)c(N)c(Cl)c1 (centres undefined)	Compound NOT metabolized
CN1CCC[C@@H]1CCO[C@](C)(c1ccccc1)c1ccc(Cl)cc1.O=C(O)/C=C/C(=O)O [CLEMASTINE FUMARATE]	Compound NOT metabolized
N#Cc1ccc2[nH]cc(CCCCN3CCN(c4ccc5oc(C(N)=O)cc5c4)CC3)c2c1	Compound metabolized
CCN(C)C(=O)Oc1cccc([C@H](C)N(C)C)c1.O=C(O)C(O)C(O)C(=O)O [RIVASTIGMINE TARTRATE]	Compound NOT metabolized
CCOC(=O)C1=C[C@]2(CC)CCCN3CCc4c(n1c1ccccc41)[C@@H]32	Compound metabolized
O=C1N=C([O-])NC1(c1ccccc1)c1ccccc1.[Na+] [PHENYTOIN SODIUM]	Compound NOT metabolized
CCCCCNC(=N)N/N=C/c1c[nH]c2ccc(OC)cc12.O=C(O)/C=C\C(=O)O [TEGASEROD MALEATE]	Compound metabolized
CCOC(=O)C1=C(C)NC(C)=C(C(=O)OC)C1c1cccc([N+](=O)[O-])c1 (centres undefined)	Compound metabolized
CCN(C(C)=O)c1cccc(-c2ccnc3c(C#N)cnn23)c1	Compound metabolized
O=C(CCCN1CCC2(CC1)C(=O)NCN2c1ccccc1)c1ccc(F)cc1	Compound NOT metabolized
O=C(NC(Cc1cc(=O)[nH]c2ccccc12)C(=O)O)c1ccc(Cl)cc1 (centres undefined) [REBAMIPIDE]	Compound NOT metabolized
COc1ccccc1OCCNCC(O)COc1cccc2[nH]c3ccccc3c12 (centres undefined)	Compound metabolized
CCOc1cc(CC(=O)N[C@@H](CC(C)C)c2ccccc2N2CCCCC2)ccc1C(=O)O [REPAGLINIDE]	Compound metabolized
Cc1nc(Nc2ncc(C(=O)Nc3c(C)cccc3Cl)s2)cc(N2CCN(CCO)CC2)n1 [DASATINIB ANHYDROUS]	Compound NOT metabolized

Where do these numbers come from? They come from ChEMBL document CHEMBL5724914.
